Molecular target: T1, recombinant human TL1A (human, UniProt O95150 71-251)
T1 construct: homotrimer; biotinylated for SPR capture; the ELISA paragraphs say only 'recombinant TL1A'; also called TNFSF15
T1 chain: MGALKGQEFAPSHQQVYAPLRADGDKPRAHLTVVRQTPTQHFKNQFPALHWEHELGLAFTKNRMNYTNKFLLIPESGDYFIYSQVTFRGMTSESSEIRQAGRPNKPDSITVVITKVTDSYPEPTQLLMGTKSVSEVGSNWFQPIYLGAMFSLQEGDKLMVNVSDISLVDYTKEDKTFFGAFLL
Assay: competition ELISA vs bio-TL1A-0002
readout_kind: Bioactivity relative to TL1A-0002 (fold)
Give the value in fold but do not write fold after it.

Guide cases for Bioactivity relative to TL1A-0002, answers given:
TL1A-0013 (antibody, IgG1, V domains shown, IgG1/kappa variant of TL1A-0002) VH: QVQLVQSGAEVKKPGASVKVSCKASGYDFTYYGISWVRQAPGQGLEWMGWISTYNGNTHYAPSLQGRVTMTTDTSTRTAYMELRSLRSDDTAVYYCARENYYGSGAYRGGMDVWGQGTTVTVSS VL: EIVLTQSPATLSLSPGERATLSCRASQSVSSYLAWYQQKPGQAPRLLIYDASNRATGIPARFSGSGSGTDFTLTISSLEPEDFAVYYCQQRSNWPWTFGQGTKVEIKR; 1.2
TL1A-0014 (antibody, IgG1, V domains shown, IgG1/kappa variant of TL1A-0002) VH: QVQLVQSGAEVKKPGASVKVSCKASGYDFTYYGISWVRQAPGQGLEWMGWISTYNGNTHYAQKLQGRVTMTTDTSTRTAYMELRSLRSDDTAVYYCARENYYGSGAYRGGMDVWGQGTTVTVSS VL: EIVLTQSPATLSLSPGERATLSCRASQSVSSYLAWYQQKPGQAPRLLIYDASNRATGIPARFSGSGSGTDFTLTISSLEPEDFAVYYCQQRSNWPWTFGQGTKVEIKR; 1.1

Query: Param item = TL1A-0087 (antibody, IgG1, V domains shown, IgG1/kappa variant of TL1A-0002) VH: QVQLVQSGAEVKKPGASVKVSCKASGYDFTYYGISWVRQAPGQGLEWMGWISAYNGNTHYAPSLQGRVTMTTDTSTRTAYMELRSLRSDDTAVYYCARENYYGSGAYRGGMDVWGQGTTVTVSS VL: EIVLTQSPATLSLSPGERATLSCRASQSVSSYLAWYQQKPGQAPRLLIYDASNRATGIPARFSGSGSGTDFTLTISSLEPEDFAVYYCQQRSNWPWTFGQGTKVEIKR ; retrieve measured Bioactivity relative to TL1A-0002.
Response: 1.1

Query: Okay, and TL1A-0083 (antibody, IgG1, V domains shown, IgG1/kappa variant of TL1A-0002) VH: QVQLVQSGAEVKKPGASVKVSCKASGYDFTYYGISWVRQAPGQGLEWMGWISTYGGNTHYAQKLQGRVTMTTDTSTRTAYMELRSLRSDDTAVYYCARENYYGSGAYRGGMDVWGQGTTVTVSS VL: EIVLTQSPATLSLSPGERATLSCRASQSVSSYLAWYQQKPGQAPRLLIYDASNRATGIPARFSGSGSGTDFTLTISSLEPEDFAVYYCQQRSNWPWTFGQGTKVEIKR ?
Response: 1.5

Query: Okay, and TL1A-0197 (antibody, IgG1, V domains shown, IgG1/kappa variant of TL1A-0002) VH: QVQLVQSGAEVKKPGASVKVSCKASGYDFTYYGISWVRQAPGQGLEWMGWISTYNGNTHYARMLQGRVTMTTDTSTRTAYMELRSLRSDDTAVYYCARESYYGSGAFRGGMDVWGQGTTVTVSS VL: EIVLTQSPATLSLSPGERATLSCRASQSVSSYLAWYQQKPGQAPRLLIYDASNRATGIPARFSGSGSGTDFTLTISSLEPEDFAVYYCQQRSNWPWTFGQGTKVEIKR ?
Response: 1.9
